- measured_on: GSK-3α/β
- protocol_details: GSK-3α/β kinase assay
- Assay type: biochemical, porcine
- assay_conditions: Table 5; 15 μM ATP; read-out: IC50 GSK3α/β
pIC50: −log10 of the molar value.
property_measured: pIC50

# compound, pIC50
data = [
    ("O=C1N=C(N2CCSCC2)S/C1=C\\c1ccc2c(c1)CCO2", 5.28),
    ("O=C1N=C(N2CCNCC2)S/C1=C\\c1ccc2c(c1)OCO2", "≥ 5.06"),
    ("O=C1N=C(N2CCCCC2)S/C1=C\\c1ccc2c(c1)OCCO2", "< 5.00"),
    ("O=C1N=C(Nc2ccccc2)S/C1=C\\c1ccc2c(c1)OCCO2", "< 5.00"),
    ("O=C1N=C(N2CCN(c3ncccn3)CC2)S/C1=C\\c1ccc2c(c1)OCO2", "< 5.00"),
    ("O=C1N=C(Nc2ccncc2)S/C1=C\\c1ccc2c(c1)OCO2", "< 5.00"),
]

List pIC50 for every entry below, keeping the order given.
1. O=C1N=C(N2CCOCC2)S/C1=C\c1ccc2c(c1)OCO2
2. O=C1N=C(Nc2ccccn2)S/C1=C\c1ccc2c(c1)OCO2
3. O=C1N=C(N2CCOCC2)S/C1=C\c1ccc2c(c1)CCO2

Return:
5.13
≥ 5.00
≤ 5.00

Hey, can you go through the list below and give me pIC50 for every item?
1. O=C1N=C(Nc2ccccc2)S/C1=C\c1ccc2c(c1)CCO2
2. COc1ccc(NC2=NC(=O)/C(=C/c3ccc4c(c3)OCO4)S2)cc1
3. O=C1N=C(N2CCN(Cc3ccc4c(c3)OCO4)CC2)S/C1=C\c1ccc2c(c1)OCO2
4. CN1CCN(C2=NC(=O)/C(=C/c3ccc4c(c3)OCO4)S2)CC1
5. O=C1N=C(Nc2ccccc2)S/C1=C\c1ccc2c(c1)OCO2
6. O=C1N=C(N2CCSCC2)S/C1=C\c1ccc2c(c1)OCCO2
7. COc1ccc(/C=C2\SC(N3CCOCC3)=NC2=O)cc1OC
8. O=C1N=C(N2CCCCC2)S/C1=C\c1ccc2c(c1)CCO2

Return:
< 5.00
< 5.00
< 5.00
< 5.00
< 5.00
5.43
< 5.00
5.33

Give me pIC50 for each of these molecules, listed below.
1. O=C1N=C(Nc2ccc(Cl)cc2)S/C1=C\c1ccc2c(c1)OCO2
2. O=C1N=C(N2CCSCC2)S/C1=C\c1ccc2c(c1)OCO2

Return:
1. < 5.00
2. ≤ 5.00

----------
I'd appreciate it if you could supply pIC50 values for the items below.
- measured_on: GSK-3α/β
- protocol_details: GSK-3α/β kinase assay
- Assay type: biochemical, porcine
- assay_conditions: Table 4; 15 μM ATP; read-out: IC50 GSK3α/β
pIC50: −log10 of the molar value.

In the examples that follow, each entry is paired with its recorded pIC50.
# compound, pIC50
measured = [
    ("O=C1NC(=S)S/C1=C\\c1ccc(O)c(O)c1", "< 5.00"),
    ("O=C(CCc1ccccc1)NN1C(=O)/C(=C/c2ccc3c(c2)OCO3)SC1=S", "< 5.00"),
    ("O=C1NC(=S)S/C1=C\\c1ccc2c(c1)OCCO2", "≥ 5.00"),
    ("O=C1NC(=S)S/C1=C\\c1ccc2c(c1)OCO2", 5.07),
    ("O=C(NN1C(=O)/C(=C/c2ccc3c(c2)OCO3)SC1=S)c1ccccc1", "< 5.00"),
]

Please report pIC50 for every entry that follows.
1. COc1ccc(C(=O)NN2C(=O)/C(=C/c3ccc4c(c3)OCO4)SC2=S)cc1
2. O=C1NC(=S)S/C1=C\c1ccc2c(c1)OCCCO2
3. O=C1NC(=S)S/C1=C\c1cc(Br)c2c(c1)OCO2
4. O=C(O)CCN1C(=O)/C(=C/c2ccc3c(c2)OCO3)SC1=S

Return:
1. < 5.00
2. < 5.00
3. < 5.00
4. < 5.00

----------
- measured_on: DYRK1A (Rattus norvegicus)
- Construct: GST; made in house; host or cells: Escherichia coli
- protocol_details: DYRK1A kinase assay
- Type: biochemical
- assay_conditions: Table 5; 15 μM ATP
property_measured: pIC50
One number for each entry, as −log10 of the molar value.

# compound, pIC50
measured = [
    ("COc1ccc(NC2=NC(=O)/C(=C/c3ccc4c(c3)OCO4)S2)cc1", 6.05),
    ("O=C1N=C(N2CCSCC2)S/C1=C\\c1ccc2c(c1)OCO2", 6.40),
    ("O=C1N=C(Nc2ccc(Cl)cc2)S/C1=C\\c1ccc2c(c1)OCO2", 5.05),
    ("O=C1N=C(N2CCSCC2)S/C1=C\\c1ccc2c(c1)CCO2", 7.15),
    ("CN1CCN(C2=NC(=O)/C(=C/c3ccc4c(c3)OCO4)S2)CC1", 5.64),
    ("O=C1N=C(N2CCCCC2)S/C1=C\\c1ccc2c(c1)OCO2", 7.28),
]

Switching to the query record.
Enquiry: So what does the record say about pIC50 for `O=C1N=C(N2CCN(c3ncccn3)CC2)S/C1=C\c1ccc2c(c1)OCO2` ?
Return: 5.74

----------
Provide the recorded log10 of IC50 for the entries that follow.
- measured_on: DYRK1A (Rattus norvegicus)
- Construct: GST; made in house; host or cells: Escherichia coli
- protocol_details: DYRK1A kinase assay
- Type: biochemical
- assay_conditions: Table 4; 15 μM ATP
Hi team, quick reminder: these entries are log10 of IC50 (µM).

Consider the following illustrative entries.
# compound, measured_on, log10 of IC50
data = [
    ("O=C1NC(=S)S/C1=C\\c1ccc(O)cc1", "DYRK1A (Rattus norvegicus)", -1.55),
    ("O=C1NC(=S)S/C1=C\\c1cc2ccccc2o1", "DYRK1A (Rattus norvegicus)", 1.18),
]

State the recorded log10 of IC50 for every item in the following list.
1. O=C1NC(=S)S/C1=C\c1ccc2c(c1)CCO2
2. O=C(O)CN1C(=O)/C(=C/c2ccc3c(c2)OCO3)SC1=S
3. COc1ccc(/C=C2\SC(=S)NC2=O)cc1O
4. COc1cc(/C=C2\SC(=S)NC2=O)ccc1O
5. O=C1NC(=S)S/C1=C\c1ccc2c(c1)OCO2
6. O=C1NC(=S)S/C1=C\c1ccc2c(c1)CCCO2

Return:
-1.05
-0.80
0.15
-1.19
-1.15
0.81

----------
Hi there, I'd appreciate the recorded IC50 for every entry that follows.
- measured_on: DYRK1A (Rattus norvegicus)
- Construct: GST; made in house; host or cells: Escherichia coli
- protocol_details: DYRK1A kinase assay
- Type: biochemical
- assay_conditions: Table 5; 15 μM ATP
Numbers only, in nM.

// known answers, use as guide
# compound, measured_on, unit, reported
records = [
    ("O=C1N=C(N2CCCCC2)S/C1=C\\c1ccc2c(c1)CCO2", "DYRK1A (Rattus norvegicus)", "nM", 90),
    ("O=C1N=C(Nc2ccccc2)S/C1=C\\c1ccc2c(c1)OCO2", "DYRK1A (Rattus norvegicus)", "nM", 610),
]

// moving on: another record for IC50
Enquiry: Consider the compound `O=C1N=C(Nc2ccccn2)S/C1=C\c1ccc2c(c1)OCO2` and give its measured IC50.
Return: 33

----------
- measured_on: GSK-3α/β
- protocol_details: GSK-3α/β kinase assay
- Assay type: biochemical, porcine
- assay_conditions: Table 4; 15 μM ATP; read-out: IC50 GSK3α/β
pIC50: −log10 of the molar value.
property_measured: pIC50

These recorded examples may help you get a feel for the data.
# compound, measured_on, pIC50
records = [
    ("O=C(O)CN1C(=O)/C(=C/c2ccc3c(c2)OCO3)SC1=S [Compound 3u]", "GSK-3α/β", "< 5.00"),
    ("O=C1NC(=S)S/C1=C\\c1ccc2c(c1)CCCO2 [Compound 3m]", "GSK-3α/β", "< 5.00"),
    ("O=C1NC(=S)S/C1=C\\c1ccc2c(c1)CCO2 [Compound 3g]", "GSK-3α/β", "≤ 5.00"),
    ("COc1cc(/C=C2\\SC(=S)NC2=O)ccc1O [Compound 3c]", "GSK-3α/β", 5.10),
    ("O=C1/C(=C/c2ccc3c(c2)OCO3)SC(=S)N1NS(=O)(=O)c1ccccc1 [Compound 3t]", "GSK-3α/β", "< 5.00"),
]

For each of the compounds below, state pIC50.
1. COc1ccc(/C=C2\SC(=S)NC2=O)cc1O [Compound 3b]
2. O=C1NC(=S)S/C1=C\c1cccc(-c2ccc3c(c2)OCO3)n1 [Compound 3h]
3. O=C(Cc1ccccc1)NN1C(=O)/C(=C/c2ccc3c(c2)OCO3)SC1=S [Compound 3q]
4. O=C1NC(=S)S/C1=C\c1cc(O)cc(O)c1 [Compound 3k]
5. O=C1NC(=S)S/C1=C\c1ccc(O)cc1 [Compound 3e]
6. NN1C(=O)/C(=C/c2ccc3c(c2)OCO3)SC1=S [Compound 3o]

Return:
1: < 5.00; 2: 5.80; 3: < 5.00; 4: < 5.00; 5: < 5.00; 6: < 5.00
